The values you see were collected from ChEMBL document CHEMBL4393703.

procedure-summary: Antiproliferative activity against human HTB-54 cells assessed as reduction in cell growth incubated for 48 hrs by MTT assay
Type: functional
condition-description: HTB-54, 48 h
So I've got a bunch of compounds here, and I need their GI50 values.
One number for each entry, in µM.

1) O=C(O)C1C2C=CC(O2)C1C(=O)Nc1ccc([Se][Se]c2ccc(NC(=O)C3C4C=CC(O4)C3C(=O)O)cc2)cc1 (centres undefined) = 27.5

Record GI50 per entry; entries follow.
1. N#C[Se]c1ccc(NC(=O)c2nccnc2C(=O)O)cc1
2. Nc1ccc([Se][Se]c2ccc(N)cc2)cc1
3. N#C[Se]c1ccc(N)cc1
4. N#C[Se]c1ccc(NC(=O)C2C3C=CC(O3)C2C(=O)O)cc1 (centres undefined)
5. N#C[Se]c1ccc(NC(=O)/C=C\C(=O)O)cc1
6. O=C1C=CC(=O)N1c1ccc([Se][Se]c2ccc(N3C(=O)C=CC3=O)cc2)cc1
7. O=C1c2ccccc2C(=O)N1c1ccc([Se][Se]c2ccc(N3C(=O)c4ccccc4C3=O)cc2)cc1

Output:
1. 100
2. 0.21
3. 0.87
4. 47.8
5. 47
6. 8.3
7. 4.91
